Origin of measurements: PubChem BioAssay

Tested on: wheat germ agglutinin (Triticum aestivum), Alexa647-labelled
Experiment: wheat germ agglutinin binders on compound microarrays, profiling panel, artefact control for SMM control-protein annotation, biochemical, small-molecule microarray, 635/667 nm fluorescence (AID 1140);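 note: score merges 667 nm feature emission with signal to noise over triplicate slides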
Conditions: WGA-A647 binding, 635 nm fluorescence, higher = more signal
ASSAY READOUT: composite z-score
Answer as a number with no unit attached.

Exercise: Suppose we examine the compound OCC1CC(c2ccccc2)=NO1 (stereo unspecified) ; what composite z-score value has been reported?
Key: -0.239

Exercise: Also COc1ccc(CCNC(=O)[C@@H]2c3ccccc3C(=O)N(Cc3cc(C(F)(F)F)cc(C(F)(F)F)c3)[C@H]2c2ccc(CO)cc2)cc1 ?
Key: 0.985

Exercise: Also CN1C(=O)C2C=CC(C(O)c3cccc4ccccc34)N(N3CCCCC3)C2C1=O (stereo unspecified) ?
Key: 1.3

Exercise: Also CCCCC=C[C@@H](NC(=O)c1ccc(-c2ccccc2)cc1)c1ccccc1 ?
Key: 0.535

Exercise: Also O=C1O[C@@H](c2ccccc2)[C@@H](c2ccccc2)N2[C@@H](c3ccc(OCCO)cc3)[C@]3(C(=O)Nc4ccccc43)[C@@H](C(=O)O)[C@H]12 ?
Key: 0.125

Exercise: Also COC(=O)[C@@]1(Cc2ccc(F)cc2)[C@H]2c3cc(C(=O)N4CCCC4)n(CCc4ccc(O)c(O)c4)c3C[C@H]2CN1C(=O)c1ccccc1 ?
Key: -0.312

Exercise: Also CCOC(=O)C[C@H]1[C@H](OC(=O)c2ccccc2-c2ccccc2)[C@@H](NC(=O)c2ccc(-c3ccccc3)cc2)c2cc(OCCCO)ccc2N1C(=O)c1ccc2ccccc2n1 ?
Key: 0.181

Exercise: Also CCC[C@@H]1C[C@@]1(CCC)[C@@H](NC(=O)OCc1ccccc1)c1ccc(-c2ccccc2)cc1 ?
Key: -0.693

Exercise: Also CC(C)Cc1ccc(CN2CC[C@@H](NC(=O)Nc3ccccc3)C2)cc1 ?
Key: 0.244

Exercise: Also CCCCN1CC=CC23O[C@@H]4/C=C\CCC(C)OC(=O)C4[C@H]2C(=O)N(C(CO)C(C)C)[C@@H]3C1=O (stereo partly specified) ?
Key: -0.0541

Exercise: Also Cc1ccccc1C(O)C1C=CC2C(=O)N(C)C(=O)C2N1N(c1ccccc1)c1ccccc1 (stereo unspecified) ?
Key: 0.641

Exercise: Also O=C1O[C@@H](c2ccccc2)[C@@H](c2ccccc2)N2[C@@H](c3ccc(O)cc3)[C@]3(C(=O)Nc4ccc(C#CC5=CCCCC5)cc43)[C@@H](C(=O)NC[C@H](O)c3ccccc3)[C@H]12 ?
Key: 1

Exercise: Also NC(=O)N1C(=O)C2C(C1=O)C1C=C(CCCO)C2C(c2cccs2)N1Cc1cccc(OC(F)(F)F)c1 (stereo unspecified) ?
Key: 0.438

Exercise: Also CC1CC/C=C\[C@H]2OC34C=CCN(c5ccc(Cl)cc5)C(=O)[C@H]3N(CCCCCO)C(=O)[C@]4(C)C2C(=O)O1 (stereo partly specified) ?
Key: -0.141

Exercise: Also C=C[C@@H](OC)[C@H](OC(=O)Nc1ccc(SC)cc1)c1ccc(O)c(F)c1 ?
Key: 0.679

Exercise: Also Cn1cccc1C(O)C1C=CC2C(=O)NC(=O)C2N1Nc1ccc(Cl)cc1Cl (stereo unspecified) ?
Key: 1.15
